All values here come from ChEMBL document CHEMBL5154871.

- tgt: Dipeptidyl peptidase 1 (Homo sapiens, UniProt P53634)
- Sequence (P53634 25-134 limits assumed): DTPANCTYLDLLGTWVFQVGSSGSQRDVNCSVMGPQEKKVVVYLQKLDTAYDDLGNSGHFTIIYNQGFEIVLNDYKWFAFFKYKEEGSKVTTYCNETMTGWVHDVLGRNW
- Sequence (P53634 231-394 limits assumed): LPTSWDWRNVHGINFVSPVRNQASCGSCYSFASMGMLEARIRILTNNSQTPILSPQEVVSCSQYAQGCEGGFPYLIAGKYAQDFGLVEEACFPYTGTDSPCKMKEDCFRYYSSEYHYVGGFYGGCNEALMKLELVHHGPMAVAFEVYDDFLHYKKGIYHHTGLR
- Sequence (P53634 395-463 limits assumed): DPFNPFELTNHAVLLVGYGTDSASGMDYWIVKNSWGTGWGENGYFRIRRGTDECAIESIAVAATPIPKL
- experiment: Inhibition of human recombinant Cathepsin C using H-Gly-Arg-AMC as substrate pretreated for 30 mins followed by substrate addition and incubated for 60 mins by microplate reader assay

{"smiles-representation": "Clc1cnc(Nc2ccc(-c3ccsc3)cn2)nc1Nc1ccccn1", "tgt": "Dipeptidyl peptidase 1 (Homo sapiens, UniProt P53634)", "IC50, nM": 102}
{"smiles-representation": "Fc1ccc(Nc2nc(Nc3ccc(-c4ccsc4)cn3)ncc2Cl)cc1F", "tgt": "Dipeptidyl peptidase 1 (Homo sapiens, UniProt P53634)", "IC50, nM": 99.8}
{"smiles-representation": "Fc1ccc(Nc2nc(Nc3ccc(-c4ccsc4)cn3)ncc2Cl)cc1C(F)(F)F", "tgt": "Dipeptidyl peptidase 1 (Homo sapiens, UniProt P53634)", "IC50, nM": 142}
